assay: Thermal stability: residual activity after incubation at 60° C. for one hour; assay type: biochemical; conditions: crude recombinant enzyme; after incubation at 60° C. for 1 hour
experimental.readout: Residual activity (%)

molecule	experimental.readout	endpoint.result
Ketose 3-epimerase mutant 26: amino acid-substituted mutant of SEQ ID NO: 1 (protein, Arthrobacter histidinolovorans) MKIGCHGLVWTGRFDAEGIRYSVQKTKEAGFDLIEFPLMDPFSFDVATAKSALAEHGLTASASLGLSEATDVSSEDPAIVKAGEELLNRALDVLAEMGATDFCGVIYSAMKKYMEPATEQGLSNSKAAVGRVVDRAAGLGINVSLEVVNRYETNVLNTGRQALSYLSDVKRPNLGVHLDTYHMNIEESDMFSPVLDTAEALKYVHIGESHRGYLGTGSVDFDNFFKALGRIGYDGPVVFESFSSAVVAPDLSRMLGIWRNLWADNEELGAHANAFIRDKLTAIKTIELH	Residual activity (%)	68.9
Ketose 3-epimerase mutant 27: amino acid-substituted mutant of SEQ ID NO: 1 (protein, Arthrobacter histidinolovorans) MKIGCHGLVWTGRFDAEGIRYSVQKTKEAGFDLIEFPLMDPFSFDVATAKSALAEHGLTASASLGLSEATDVSSEDPAIVKAGEELLNRALDVLAELGATEFCGVIYSAMKKYMEPATEQGLSNSKAAIGRVVDRAAGLGINVSLEVVNRYETNVLNTGRQALSYLSDVKRPNLGVHLDTYHMNIEESDMFSPVLDTAEALKYVHIGESHRGYLGTGSVDFDNFFKALGRIGYDGPVVFESFSSAVVAPDLSRMLGIWRNLWADNEELGAHANAFIRDKLTAIKTIELH	Residual activity (%)	61.9
Ketose 3-epimerase mutant 35: amino acid-substituted mutant of SEQ ID NO: 1 (protein, Arthrobacter histidinolovorans) MKIGCHGLVWTGRFDAEGIRYSVQKTKEAGFDLIEFPLMDPFSFDVATAKSALAEHGLTASASLGLSEATDVSSEDPAIVKAGEELLNRALDVLAELGATDFCGVIYSAMKKYMEPATEQGLSNSKAAVGRIVDRAAGLGINVSLEVVNRYETNVLNTGRQALSYLSDVKRPNLGVHLDTYHMNIEESDMFSPVLDTAEALKYVHIGESHRGYLGTGSVDFDNFFKALGRIGYDGPVVFESFSSAVVAPDLSRMLGIWRNLWADNEELGAHANAFIRDKLTAIKTIELH	Residual activity (%)	69.2
Ketose 3-epimerase mutant 8: amino acid-substituted mutant of SEQ ID NO: 1 (protein, Arthrobacter histidinolovorans) MKIGCHGLVWTGRFDAEGIRYSVQKTKEAGFDLIEFPLMDPFSFDVATAKSALAEHGLTASASLGLSEATDVSSEDPAIVKAGEELLNRALDVLAELGATDFCGVIYSAMKKYMEPATEQGLSNSKAAIGRVVDRAAGLGINVSLEVVNRYETNVLNTGRQALSYLSDVKRPNLGVHLDTYHMNIEESDMFSPVLDTAEVLKYVHIGESHRGYLGTGNVDFDNFFKALGRIGYDGPVVFESFSSAVVAPDLSRMLGIWRNLWADNEELGAHANAFIRDKLTAIKTIELH	Residual activity (%)	115.3
